In this section, each of the molecules is paired with its reported % degradation of peptidomimetics in 24 h when incubated with DPP-IV enzyme.
Target: DPP IV (Homo sapiens)
Sequence (P27487 whole entry, species assumed): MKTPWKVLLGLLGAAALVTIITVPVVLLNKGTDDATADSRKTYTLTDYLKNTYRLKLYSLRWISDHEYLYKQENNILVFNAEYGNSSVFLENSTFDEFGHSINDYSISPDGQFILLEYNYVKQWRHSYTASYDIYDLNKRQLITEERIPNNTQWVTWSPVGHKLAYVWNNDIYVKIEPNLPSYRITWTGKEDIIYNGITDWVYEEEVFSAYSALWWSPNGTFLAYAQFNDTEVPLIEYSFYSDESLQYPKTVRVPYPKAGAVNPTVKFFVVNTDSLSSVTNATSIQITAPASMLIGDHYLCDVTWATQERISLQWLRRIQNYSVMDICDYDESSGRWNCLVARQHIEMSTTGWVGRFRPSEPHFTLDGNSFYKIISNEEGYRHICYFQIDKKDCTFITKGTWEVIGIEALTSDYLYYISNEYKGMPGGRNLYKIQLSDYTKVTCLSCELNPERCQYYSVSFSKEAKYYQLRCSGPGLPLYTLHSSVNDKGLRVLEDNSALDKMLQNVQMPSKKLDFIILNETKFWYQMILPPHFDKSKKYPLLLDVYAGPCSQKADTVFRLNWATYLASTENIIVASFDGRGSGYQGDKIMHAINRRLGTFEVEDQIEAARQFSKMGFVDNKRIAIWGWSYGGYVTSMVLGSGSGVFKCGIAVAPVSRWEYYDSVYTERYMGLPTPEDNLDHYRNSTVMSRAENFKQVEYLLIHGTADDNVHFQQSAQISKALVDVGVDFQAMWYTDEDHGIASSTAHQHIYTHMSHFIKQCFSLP
Assay: Stability against DPP IV enzyme
Format: in vitro ADME
Settings: 2 μM peptidomimetic, 37° C., 24 h
Non-standard residues stand in square brackets, D forms with d. Residues, ends and D or L forms follow the SMILES beside them. ξ: configuration not given here. ξBip(2'-Et-4'-OMe) = CCc1cc(OC)ccc1-c1ccc(CC(N)C(=O)O)cc1; ξNva(5-(3-Cl-Ph)) = NC(CCCc1cccc(Cl)c1)C(=O)O; Ac5c = NC1(C(=O)O)CCCC1
value.kind: % degradation of peptidomimetics in 24 h when incubated with DPP-IV enzyme (%)

- CCc1cc(OC)ccc1-c1ccc(CC(NC(=O)[C@H](CC(=O)O)NC(=O)[C@H](CO)NC(=O)[C@@H](NC(=O)C(C)(Cc2ccccc2F)NC(=O)[C@@H](NC(=O)CNC(=O)[C@H](CC(C(F)(F)F)C(F)(F)F)NC(=O)C(C)(C)NC(=O)[C@@H](N)Cc2c[nH]cn2)[C@H](C)O)[C@@H](C)O)C(=O)NC(CCCc2ccccc2)C(N)=O)cc1 (stereo partly drawn): 74
- CCc1cc(OC)ccc1-c1ccc(CC(CNC(CCCc2ccccc2)C(N)=O)NC(=O)[C@H](CC(=O)O)NC(=O)[C@H](CO)NC(=O)[C@@H](NC(=O)C(C)(Cc2ccccc2F)NC(=O)[C@@H](NC(=O)CNC(=O)[C@H](CCC(N)=O)NC(=O)C(C)(C)NC(=O)[C@H](Cc2c[nH]cn2)NC(C)=O)[C@H](C)O)[C@H](C)O)cc1 (single isomer, unassigned): 00
- CCc1cc(OC)ccc1-c1ccc(CC(NC(=O)[C@H](CC(=O)O)NC(=O)[C@H](CO)NC(=O)[C@@H](NC(=O)[C@H](Cc2ccccc2)NC(=O)[C@@H](NC(=O)CNC(=O)[C@H](CCC(N)=O)NC(=O)C2(NC(=O)[C@@H](N)Cc3c[nH]cn3)CCCC2)[C@@H](C)O)[C@@H](C)O)C(=O)NC(CCCc2cccc(Cl)c2)C(N)=O)cc1 (stereo partly drawn) [compound 27] (H-H[Ac5c]QGTFTSD[ξBip(2'-Et-4'-OMe)][ξNva(5-(3-Cl-Ph))]-NH2): 00

====

In this section, each of the compounds is paired with its reported half-life at 2 μM.
Assay: Stability in human plasma
Assay type: in vitro ADME
Details: pH 7.8; 2 μM peptidomimetic, pooled human plasma, 37° C.; read-out: half-life (t1/2) when incubated with human plasma
value.kind: half-life at 2 μM

* CCc1cc(OC)ccc1-c1ccc(CC(CNC(CCCc2ccccc2F)C(N)=O)NC[C@H](CC(=O)O)NC(=O)[C@H](CO)NC(=O)[C@@H](NC(=O)C(C)(Cc2ccccc2F)NC(=O)[C@@H](NC(=O)CNC(=O)[C@H](CCC(N)=O)NC(=O)C(C)(C)NC(=O)[C@@H](N)Cc2c[nH]cn2)[C@H](C)O)[C@H](C)O)cc1 (single isomer, unassigned) | > 24 h
* CCc1cc(OC)ccc1-c1ccc(CC(NC(=O)[C@H](CC(=O)O)NC(=O)[C@H](CO)NC(=O)[C@@H](NC(=O)[C@H](Cc2ccccc2)NC(=O)[C@@H](NC(=O)CNC(=O)[C@H](CCC(N)=O)NC(=O)C2(NC(=O)[C@@H](N)Cc3c[nH]cn3)CC2)[C@@H](C)O)[C@@H](C)O)C(=O)NC(CCCc2ccc(F)cc2C(F)(F)F)C(N)=O)cc1 (single isomer, unassigned) | 8 h
* CCc1cc(OC)ccc1-c1ccc(CC(NC(=S)[C@H](CC(=O)O)NC(=O)[C@H](CO)NC(=O)[C@@H](NC(=O)C(C)(Cc2ccccc2F)NC(=O)[C@@H](NC(=O)CNC(=O)C(CCC#N)NC(=O)C(C)(C)NC(=O)[C@@H](N)Cc2c[nH]cn2)[C@H](C)O)[C@H](C)O)C(=S)NC(CCCc2ccccc2)C(N)=O)cc1 (single isomer, unassigned) | > 24 h
* CCc1cc(OC)ccc1-c1ccc(CC(NC(=O)[C@H](CC(=O)O)NC(=O)[C@H](CO)NC(=O)[C@@H](NC(=O)[C@H](Cc2ccccc2)NC(=O)[C@@H](NC(=O)CNC(=O)C(CCC#N)NC(=O)C(C)(C)NC(=O)[C@@H](N)Cc2c[nH]cn2)[C@@H](C)O)[C@@H](C)O)C(=O)NC(CCCc2ccc(OC)cc2Cl)C(N)=O)cc1 (single isomer, unassigned) | > 24 h
* CCc1cc(OC)ccc1-c1ccc(CC(NC(=O)[C@H](CC(=O)O)NC(=O)[C@H](CO)NC(=O)[C@@H](NC(=O)[C@H](Cc2ccccc2)NC(=O)[C@@H](NC(=O)CNC(=O)C(CCC#N)NC(=O)C(C)(C)NC(=O)[C@@H](N)Cc2c[nH]cn2)[C@@H](C)O)[C@@H](C)O)C(=O)NC(CCCc2ccccc2Cl)C(N)=O)cc1 (single isomer, unassigned) | > 24 h

====

In this section, each of the molecules is paired with its reported % degradation of peptidomimetics in 24 h when incubated with simulated gastric fluid.
Assay: Stability in simulated gastric fluid
Format: in vitro ADME
Settings: 2 μM peptidomimetic, simulated gastric fluid pH 1.5, 37° C., 24 h
Non-standard residues stand in square brackets, D forms with d. Residues, ends and D or L forms follow the SMILES beside them. ξ: configuration not given here. ξNMeBip(2'-Et,4'-OMe) = CCc1cc(OC)ccc1-c1ccc(CC(NC)C(=O)O)cc1; Leu(5,5,5,5',5',5'-F6) = N[C@@H](CC(C(F)(F)F)C(F)(F)F)C(=O)O; ξNMeNva(5-(2-F-Ph)) = CNC(CCCc1ccccc1F)C(=O)O; ξαMePhe(2-F) = CC(N)(Cc1ccccc1F)C(=O)O; NMeD = CN[C@@H](CC(=O)O)C(=O)O; aThr = C[C@H](O)[C@H](N)C(=O)O; Aib = CC(C)(N)C(=O)O
value.kind: % degradation of peptidomimetics in 24 h when incubated with simulated gastric fluid (%)

* CCc1cc(OC)ccc1-c1ccc(CC(NC(=O)[C@H](CC(=O)O)NC(=O)[C@H](CO)NC(=O)[C@@H](NC(=O)[C@H](Cc2ccccc2)NC(=O)[C@@H](NC(=O)CNC(=O)[C@H](CCC(N)=O)NC(=O)[C@H](CO)NC(=O)[C@@H](N)Cc2c[nH]cn2)[C@@H](C)O)[C@@H](C)O)C(=O)NC(CCCc2ccccc2F)C(N)=O)cc1 (single isomer, unassigned) [compound 45] | 100
* CCc1cc(OC)ccc1-c1ccc(CC(NC(=O)[C@H](CC(=O)O)NC(=O)[C@H](CO)NC(=O)[C@@H](NC(=O)[C@H](Cc2ccccc2)NC(=O)[C@@H](NC(=O)CNC(=O)C(CCC#N)NC(=O)C(C)(C)NC(=O)[C@@H](N)Cc2c[nH]cn2)[C@@H](C)O)[C@@H](C)O)C(=O)NC(CCCc2ccc(F)cc2F)C(N)=O)cc1 (single isomer, unassigned) [compound 78] | 100
* CCc1cc(OC)ccc1-c1ccc(CC(C(=O)N(C)C(CCCc2ccccc2F)C(N)=O)N(C)C(=O)[C@H](CC(=O)O)N(C)C(=O)[C@H](CO)NC(=O)[C@@H](NC(=O)C(C)(Cc2ccccc2F)NC(=O)[C@@H](NC(=O)CNC(=O)[C@H](CC(C(F)(F)F)C(F)(F)F)NC(=O)C(C)(C)NC(=O)[C@@H](N)Cc2c[nH]cn2)[C@H](C)O)[C@H](C)O)cc1 (stereo partly drawn) [compound 221] (H-H[Aib][Leu(5,5,5,5',5',5'-F6)]G[aThr][ξαMePhe(2-F)][aThr]S[NMeD][ξNMeBip(2'-Et,4'-OMe)][ξNMeNva(5-(2-F-Ph))]-NH2) | 00

====

Assay: Stability in liver microsomes
Assay type: in vitro ADME
Conditions: 2 μM peptidomimetic, human liver microsomes, 37° C., 24 h
Non-standard residues stand in square brackets, D forms with d. Residues, ends and D or L forms follow the SMILES beside them. ξ: configuration not given here. Leu(5,5,5,5',5',5'-F6) = N[C@@H](CC(C(F)(F)F)C(F)(F)F)C(=O)O; ξBip(2'-Et-4'-OMe) = CCc1cc(OC)ccc1-c1ccc(CC(N)C(=O)O)cc1; ξbishPhe(2-F) = NC(CCCc1ccccc1F)C(=O)O; ξαMePhe(2-F) = CC(N)(Cc1ccccc1F)C(=O)O; Aib = CC(C)(N)C(=O)O
In this section, each of the molecules is paired with its reported % degradation of peptidomimetics in 24 h when incubated with liver microsomes.
value.kind: % degradation of peptidomimetics in 24 h when incubated with liver microsomes (%)

* CCc1cc(OC)ccc1-c1ccc(CC(NC(=O)[C@H](CC(=O)O)NC(=O)[C@H](CO)NC(=O)[C@@H](NC(=O)C(C)(Cc2ccccc2F)NC(=O)[C@@H](NC(=O)CNC(=O)[C@H](CC(C(F)(F)F)C(F)(F)F)NC(=O)C(C)(C)NC(=O)[C@H](Cc2c[nH]cn2)NC(C)=O)[C@@H](C)O)[C@@H](C)O)C(=O)NC(CCCc2ccccc2F)C(N)=O)cc1 (some centres unmarked) [compound 212] (Ac-H[Aib][Leu(5,5,5,5',5',5'-F6)]GT[ξαMePhe(2-F)]TSD[ξBip(2'-Et-4'-OMe)][ξbishPhe(2-F)]-NH2) | 100
* CCc1cc(OC)ccc1-c1ccc(CC(CNC(CCCc2ccccc2)C(N)=O)NC(=O)[C@H](CC(=O)O)NC(=O)[C@H](CO)NC(=O)[C@@H](NC(=O)C(C)(Cc2ccccc2F)NC(=O)[C@@H](NC(=O)CNC(=O)[C@H](CCC(N)=O)NC(=O)C(C)(C)NC(=O)[C@H](Cc2c[nH]cn2)NC(C)=O)[C@H](C)O)[C@H](C)O)cc1 (single isomer, unassigned) [compound 185] | 84

Hey, just so you know, these numbers are from patent US8883963B2.
